Biological target: human KEAP1 (N-term, residues 321-609) (Homo sapiens, UniProt Q14145)
Construct: human KEAP1 (N-term, residues 321-609)
Sequence (Q14145 321-609): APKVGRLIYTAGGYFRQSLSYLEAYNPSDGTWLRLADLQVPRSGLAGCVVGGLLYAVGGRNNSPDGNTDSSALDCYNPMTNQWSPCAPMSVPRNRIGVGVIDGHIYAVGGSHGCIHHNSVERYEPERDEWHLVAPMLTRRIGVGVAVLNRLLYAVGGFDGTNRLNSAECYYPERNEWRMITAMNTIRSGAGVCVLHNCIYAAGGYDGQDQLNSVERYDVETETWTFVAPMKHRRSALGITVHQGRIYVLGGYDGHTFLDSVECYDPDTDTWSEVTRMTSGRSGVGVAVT
Assay: KEAP1 Kelch Fluorescence Polarization (FP) Assay
Conditions: inhibition of Kelch domain-NRF2 interaction; 2 nM FITC-labelled NRF2 peptide, 25 nM KEAP1, 1 h room temperature; compounds below 10 nM cannot be differentiated
readout_name: pIC50
Notebook: values listed as pIC50 are -log10 of the concentration (mol/L).

A selection of reference data follows.
compound: CNC(=O)CCCOc1cccc2c1[C@@H](CN1C(=O)c3ccccc3C1=O)N(C(=O)[C@@H]1CCCC[C@@H]1C(=O)NC)CC2
pIC50: 6.47
--
compound: CNC(=O)[C@H]1CCCC[C@H]1C(=O)N1CCc2cccc(O[C@H]3CCN(C(=O)c4cncs4)C3)c2[C@H]1CN1CCOC1=O
pIC50: 6.51
--
compound: CNC(=O)C1CCCC1C(=O)N1CCc2c(Cl)ccc(OCc3nnn(C)c3C(F)F)c2[C@H]1CN1CCCC1=O (single isomer, unassigned)
pIC50: 7.74
--
compound: O=C(NCCCO)[C@H]1CCCC[C@H]1C(=O)N1CCc2cccc(O[C@H]3CCN(C(=O)c4cncs4)C3)c2[C@H]1CN1C(=O)c2ccccc2C1=O
pIC50: 6.73
--
compound: CNC(=O)[C@H]1CCCC[C@H]1C(=O)N1CCc2c(Cl)ccc(OCc3ccc4ncn(C)c4n3)c2[C@H]1CN1CCCC1=O
pIC50: 6.43

Task: Supply recorded pIC50 for Cn1nnc(COc2ccc(Cl)c3c2[C@@H](CN2CC4(CC4)CC2=O)N(C(=O)[C@@H]2CCCC[C@]2(C)C(N)=O)CC3)c1C(F)F here.
Result: 8.19

Task: Please report the measured pIC50 for CNC(=O)[C@H]1CCCC[C@H]1C(=O)N1CCc2cccc(OCc3cnn(C)c3)c2[C@H]1CN1C(=O)c2ccccc2C1=O
Result: 5.74

Task: Provide one value: measured pIC50 of CNC(=O)[C@@]1(C)CCCC[C@H]1C(=O)N1CCc2c(Cl)ccc(OCc3nnn(C)c3C(F)F)c2[C@H]1CN1CCC(C)C1=O (single isomer, unassigned)
Result: 7.43

Task: Provide measured pIC50 value, entry: CNC(=O)[C@H]1CCCC[C@H]1C(=O)N1CCc2cccc(O[C@H]3CCN(C(=O)c4cncs4)C3)c2[C@H]1CN1CCCC1=O
Result: 7.21

Task: Supply measured pIC50 of CNC(=O)[C@H]1CCCC[C@H]1C(=O)N1CCc2c(Cl)ccc(OCc3nn(C)c4ccccc34)c2[C@H]1CN1CCCC1=O in your reply.
Result: 6.14

Task: Indicate its recorded pIC50; the compound in question is C[C@]1(C(N)=O)CCCC[C@H]1C(=O)N1CCc2c(Cl)cc(F)c(OCc3nnn4c3CCCC4)c2[C@H]1CN1CC2(CC2)CC1=O
Result: 8.14

Task: Give me measured pIC50, please, for this compound: CNC(=O)[C@H]1CCCC[C@H]1C(=O)N1CCc2c(Cl)ccc(OCc3nnn(C)c3C(F)F)c2[C@H]1CN1Cc2ccccc2C1=O
Result: 7.96
